Test system: MS2 coat protein
Assay: apparent KD of MS2 coat protein; designed switch direction (-1 OFF switch, 1 ON switch): -1; higher = weaker reporter binding
Conditions: input ligand: microRNA oligo, concentration not stated
Reported apparent KD of MS2 coat protein values follow for various sequences
parameter: apparent KD of MS2 coat protein (nM)

>>> result_number("CACCUGAACACAGGAUAUCAUACAUGAGGAUCACCCAUGUAAUAAAUGAGAAUUUCGAAUGUAAUUGAGAAGGGUGGAUAAGGC [Ostricism 90 - Jieux - Exclusion NG 2] (Eterna round: R96, puzzle: Exclusion NG 2)")
34.6
>>> result_number("AUAAAUCAUGUAGGAUAUGCGUGGAGAAGCUAUGCAGAAGGACAUGAGGAUCACCCAUGUGCUUCCGUCUGCGUACAGACGGAA [Mat - Exclusion NG 1 - Mod of JL - D36] (Eterna round: R96, puzzle: Exclusion NG 1)")
89.2
>>> result_number("CGAUAAAAGUGAGGAUAUGAGGAGAGAGAGAGAUCAGAAGGCACACAUGAGGAUCACCCAUGUGAGUUCUCGAAAUUAAAUAUU [Prohibition 49 - Jieux - Exclusion NG 1] (Eterna round: R96, puzzle: Exclusion NG 1)")
11.4
>>> result_number("CAAGCUUUGCGAGGAUAUGAUGGCCGAUAUGCCUCAGAAGGCGCAGAAACUUGAGGAUCACCCAAGUGAUGCAACGACGACCAU [Mutated MS2 EX1.12] (Eterna round: R96, puzzle: Exclusion NG 1)")
10.7

====

Tested on: MS2 coat protein
Test: apparent KD of MS2 coat protein; higher = weaker reporter binding
Conditions: Eterna round: R107; input ligand: theophylline 2 mM
If the reported apparent KD of MS2 coat protein equals or exceeds 20 nM, assign criterion met. If not, assign criterion not met.

>>> qualitative_label("CCGUUAAAAUUCCAUUAUACAAUACCUGAAGGAGCGUAGGAAACUACAGGUAGGUCGCAGAUACAUGAGGAUCACCCAUGUACGG [SSAA #13]")
"criterion met"
>>> qualitative_label("UCAGUGCAAGGAAGGAGCGGGUACAUGAGGAUCACCCAUGUGCAAGUGGUGAGUGUUCGUGCCCAGGUAGGUCGCCUAGCCUGGU [XArg-B19]")
"criterion met"
>>> qualitative_label("UUCAGCUAGUCGGCCGCCACUACAAGAGGAUCACCCUUGUAAUCCUAACACUGCUUCGGCAGUGGUAGGACCGGGACUAGCUGAG")
"criterion not met"
>>> qualitative_label("AGCUCGCAAUCCUCAGCGUCAAAGACGCGUCGAGGACCGGUACGGCCGCCACUCGACAAGAGGAUCACCCUUGUCUAAGCGAGCA [TrypAX 5 #SwitchBubble #AlternativeMS2 #MS2Late #CuTurnoff]")
"criterion met"
>>> qualitative_label("GACAUGAGGAUCACCCAUGUUUGCUAUGAAGGAGCGUCGGAAAUGACAGGUAGGUCGCAUAGUAGGCCUUGUAUUUUGUGUGUUU [EAA #8]")
"criterion not met"
>>> qualitative_label("CCUGAUAACUGAAGGAGCGAGAAACCCUACAUGAGGAUCACCCAUGUAUACACGGGAACUUCUCAGGUAGGUCGCAGUUUGUCAG [Adiso]")
"criterion met"
>>> qualitative_label("CCGACGAUGACUAUGGGUCAGGAGUGCGUACGAGGACCGGUACGGCCGCCACUCGAGGAGUGGGACAUGAGGAUCACCCAUGUGG [#19 Exclusion Tryptophan A]")
"criterion met"
>>> qualitative_label("ACAUGAGGAUCACCCAUGUGUGUAAGUCCUCGAGGACCGGUACGGCCGCCACUCGAACGAGUGAAGCCUGAUACUAAGUAUCAGG [SS Trp A s5]")
"criterion not met"
>>> qualitative_label("AGCGUGCAUCGGAAAACGAUGUACGCAAAUCGAGGACCGGUACGGCCGCCACUCGUCCUCAACAUGAGGAUCACCCAUGUAAUAA [Mat - Exclusion - Trytophan A - D10]")
"criterion met"
>>> qualitative_label("UCGCUCUGGGUGAAUUCCGGAGAUGUGGAAGGAGCGGACGAAAGUCCAGGUAGGUCGCCAUCGGACAUGAGGAUCACCCAUGUAC [Same State - Arginine A (Freestyle 22)]")
"criterion met"
>>> qualitative_label("ACAUGAGGAUCACCCAUGUCAUGAGGUUCACGAGGACCGGUACGGCCGCCACUCGACAUGAGGGUCACCCGUGAAGGGAACACCC [xdmullin]")
"criterion met"
>>> qualitative_label("AUGCCUAGUGGAAGGAGCGAGGGUCUUCUCAACAUGAGGAUCACCCAUGUUCUUUUACACCCUCAGGUAGGUCGCCAUUGGGACA [Biraanve]")
"criterion met"
